meta.source: patent US20160297884A1

Target: T1, Human BCMA (human, UniProt Q02223 1-54, limits assumed)
T1 construct: Soluble analyte in SPR; construct not described; also called huBCMA; B-cell maturation antigen
T1 sequence (looked up): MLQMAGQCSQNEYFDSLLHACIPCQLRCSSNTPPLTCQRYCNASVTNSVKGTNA
Assay: SPR, IgG immobilised, 37 C
Provide the reported koff of each item.
One number for each entry, in s⁻¹.

Please review the entries below; each comes with its answer.
1) L3.PY/L1.FF/P6E01 (antibody, V domains shown, IgG) VH: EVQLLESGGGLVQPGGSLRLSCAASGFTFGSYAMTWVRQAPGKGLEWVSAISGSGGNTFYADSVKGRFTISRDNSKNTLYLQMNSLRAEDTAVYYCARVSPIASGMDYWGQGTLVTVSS VL: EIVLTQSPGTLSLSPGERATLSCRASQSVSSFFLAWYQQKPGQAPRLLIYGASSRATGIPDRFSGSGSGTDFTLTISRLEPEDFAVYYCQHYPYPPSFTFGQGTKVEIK: 0.00141
2) L3.PY/L1.AH/H3.AE (antibody, V domains shown, IgG) VH: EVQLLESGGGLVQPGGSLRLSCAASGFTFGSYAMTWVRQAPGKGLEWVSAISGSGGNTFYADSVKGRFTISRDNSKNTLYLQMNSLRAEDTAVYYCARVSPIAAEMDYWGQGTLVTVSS VL: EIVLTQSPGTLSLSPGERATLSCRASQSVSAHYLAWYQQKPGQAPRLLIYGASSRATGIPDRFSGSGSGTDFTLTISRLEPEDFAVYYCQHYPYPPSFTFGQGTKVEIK: 0.00173

Need koff for each of these binders.
1. L3.PY/L1.PS/H3.TAQ (antibody, V domains shown, IgG) VH: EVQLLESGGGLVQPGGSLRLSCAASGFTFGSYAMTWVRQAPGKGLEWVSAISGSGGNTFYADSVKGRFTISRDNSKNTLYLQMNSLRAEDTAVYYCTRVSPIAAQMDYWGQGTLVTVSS VL: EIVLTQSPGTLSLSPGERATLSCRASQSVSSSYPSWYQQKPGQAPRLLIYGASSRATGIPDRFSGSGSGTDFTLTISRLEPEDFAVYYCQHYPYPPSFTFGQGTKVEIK
2. L3.PY/L1.PH/P6E01 (antibody, V domains shown, IgG) VH: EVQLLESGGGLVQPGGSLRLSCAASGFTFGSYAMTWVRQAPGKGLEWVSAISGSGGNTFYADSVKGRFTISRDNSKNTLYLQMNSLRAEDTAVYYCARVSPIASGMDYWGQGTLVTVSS VL: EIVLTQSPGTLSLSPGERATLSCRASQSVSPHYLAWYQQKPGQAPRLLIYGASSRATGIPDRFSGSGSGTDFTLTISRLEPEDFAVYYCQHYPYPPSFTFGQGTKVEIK
3. L3.PY/L3.KY/H2.HA (antibody, V domains shown, IgG) VH: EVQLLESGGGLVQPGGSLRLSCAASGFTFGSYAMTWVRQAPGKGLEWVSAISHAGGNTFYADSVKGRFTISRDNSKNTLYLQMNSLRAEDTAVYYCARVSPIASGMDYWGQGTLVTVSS VL: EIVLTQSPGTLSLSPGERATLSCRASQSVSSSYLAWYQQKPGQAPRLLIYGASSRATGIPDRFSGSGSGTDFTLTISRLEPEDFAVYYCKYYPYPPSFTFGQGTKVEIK

RESULT:
1: 0.00246; 2: 0.000913; 3: 0.00163
